Experiment: photoluminescence quantum yield (fraction); solvent given as SMILES
Conditions: in CC#N
Property: photoluminescence quantum yield
// print number alone

Completed entries (count: 8):
CC(C)[Si]1(C(C)C)c2cc(C#N)ccc2-c2ccc(N(C)C)cc21 | 0.65
Oc1ccc2ccccc2c1/C=N/CC/N=C/c1c(O)ccc2ccccc12 | 0.12
CCn1c2ccccc2c2cc(/C=C/c3cccc(/C=C/c4ccc5c(c4)c4ccccc4n5CC)[n+]3CCCS(=O)(=O)[O-])ccc21 | 0.03
COc1ccc(C2=CC(c3ccc4ccccc4c3)=[O+][B-](C(C)=O)(C(C)=O)O2)cc1 | 0.6
COc1cc2cc(/C=C/c3ccc(/C=C/c4ccc(/C=C(\C#N)C(=O)O)cc4)cc3)c(=O)oc2cc1OC | 0.24
O=Cc1ccc(C2=C3C=c4c(oc5ccccc45)=[N+]3[B-](F)(F)n3c2cc2c4ccccc4oc23)cc1 | 0.37
Cc1ccc(C)c2nc3c(=O)[nH]c(=O)[nH]c3nc12 | 0.08
COc1cnc(-c2cc[n+](C3=C(F)C(F)(F)C(F)(F)[C-]3F)cc2)s1 | 0.64

Given Nc1cc(N)cc(-c2nc3ccccc3s2)c1 , respond with its photoluminescence quantum yield.
0.05

Given N#C/C(=C/Nc1ccc(C#N)cc1)c1nc(-c2ccccc2)cs1 , respond with its photoluminescence quantum yield.
0

Given c1ccc(-c2pc3ccccc3s2)cc1 (stereo unspecified) , respond with its photoluminescence quantum yield.
0.044

Given Cc1ccc(C2=C3C=CC=[N+]3[B-](F)(F)n3cccc32)cc1 , respond with its photoluminescence quantum yield.
0.018

Given CC1=[N+]2C(=C(c3ccc(N(C)C)cc3)c3ccc(C)n3[B-]2(F)F)C=C1 , respond with its photoluminescence quantum yield.
0.008

* * *

Assay: photoluminescence quantum yield (fraction); solvent given as SMILES
Conditions: in ClCCl
Property: photoluminescence quantum yield
// print number alone

N#Cc1nc2c(OCc3ccccc3)nc(N)nc2n1Cc1ccccc1 | 0.81
C1=C2C3=C(C4=[N+]2[B-]2(Oc5ccccc54)Oc4ccccc4-c4c5c(c1n42)C1CCC5CC1)C1CCC3CC1 (stereo not drawn) | 0.99

Given Oc1ccccc1-c1nc2ccccc2s1 , respond with its photoluminescence quantum yield.
0.0368

Given C[Si]1(C)c2ccc(-c3ccccc3)cc2C=Cc2cc(-c3ccccc3)ccc21 , respond with its photoluminescence quantum yield.
0.38

Given CCCCCCc1ccc2c3c(ccc2c1)O[B-](c1ccccc1)(c1ccccc1)[N+](c1cc([N+]2=Cc4c(ccc5cc(CCCCCC)ccc45)O[B-]2(c2ccccc2)c2ccccc2)cc([N+]2=Cc4c(ccc5cc(CCCCCC)ccc45)O[B-]2(c2ccccc2)c2ccccc2)c1)=C3 , respond with its photoluminescence quantum yield.
0.31

Given CCC1=C(CC)c2cccc3c2c(cc2nc4ccccc4nc23)O1 , respond with its photoluminescence quantum yield.
0.47

Given O=Cc1ccc(/C=C/c2nc(N3CCOCC3)c3c([n+]2[O-])CCCC3)cc1 , respond with its photoluminescence quantum yield.
0.025

Given N#C/C(=C\c1ccc(-c2ccncc2)cc1)c1ccc(-c2ccncc2)cc1 , respond with its photoluminescence quantum yield.
0.002

* * *

Test: photoluminescence quantum yield (fraction); solvent given as SMILES
Conditions: in CN(C)C=O
Property: photoluminescence quantum yield
// print number alone

Completed entries (count: 2):
O=c1[nH]nc(-c2ccc(/C=C/c3ccc(-c4n[nH]c(=O)o4)cc3)cc2)o1 | 0.5
[C-]#[N+]c1ccc(-c2ccc(NC)cc2)cc1 | 0.49

Next:
Given c1ccc(-c2nn(-c3ccccc3)c3nc4ccc(N(c5ccccc5)c5ccccc5)cc4cc23)cc1 , respond with its photoluminescence quantum yield.
0.5

* * *

Property: photoluminescence quantum yield; scope: individual compounds
Assay: photoluminescence quantum yield (fraction); solvent given as SMILES
Conditions: in CN(C)C=O
// print number alone

Completed entries (count: 2):
CCN(CC)c1ccc2cc(/C=C/C(=O)c3cc4ccc(N(CC)CC)cc4oc3=O)c(=O)oc2c1 | 0.01
F[B-]1(F)n2cccc2C(c2c3ccccc3c(-c3ccccc3)c3ccccc23)=C2C=CC=[N+]21 | 0.001

Given CCn1c2ccccc2c2cc(-c3cc(-c4ccc5c(c4)c4ccccc4n5CC)nc(SC)n3)ccc21 , respond with its photoluminescence quantum yield.
0.46

* * *

Assay: photoluminescence quantum yield (fraction); solvent given as SMILES
Conditions: in CCO
Property: photoluminescence quantum yield; scope: individual compounds
// print number alone

Completed entries (count: 2):
c1ccc2c(c1)c1ccccc1c1[nH]c(-c3ccc(-c4nc5c6ccccc6c6ccccc6c5[nH]4)cc3)nc21 | 0.77
CN(C)c1ccc(/C=C/C=C/c2nc3ccccc3o2)cc1 | 0.0048

Next:
Given COC(=O)C(Cc1ccc2oc(-c3ccc4c(c3)c3ccccc3n4-c3ccccc3)nc2c1)NC(=O)OC(C)(C)C (stereo not drawn) , respond with its photoluminescence quantum yield.
1

* * *

Assay: photoluminescence quantum yield (fraction); solvent given as SMILES
Settings: in CCOC(C)=O
Binary classification by photoluminescence quantum yield, with 0.4 as an inclusive lower bound for True; all other cases are False.

Does the reported photoluminescence quantum yield for NS(=O)(=O)c1ccc(N2N=C(c3ccc(O)cc3)CC2c2ccc(F)cc2)cc1 (configuration not stated) fall at or above the 0.4 mark?
True

Does the reported photoluminescence quantum yield for CCN(CC)c1ccc2cc(/C=C/C(=C(C#N)C#N)c3ccc4c(c3)c3ccccc3n4CC)c(=O)oc2c1 fall at or above the 0.4 mark?
False

Does the reported photoluminescence quantum yield for [C-]#[N+]c1ccc(-c2ccc(NC)cc2)cc1 fall at or above the 0.4 mark?
True

* * *

Assay: photoluminescence quantum yield (fraction); solvent given as SMILES
Details: in CN(C)C=O
Property: photoluminescence quantum yield
// print number alone

Completed entries (count: 10):
COc1ccc(-c2sc3c(-c4ccc(OC)cc4)c4n(c3c2-c2ccc(OC)cc2)[B-](F)(F)[N+]2=Cc3c(-c5ccc(OC)cc5)c5sc(-c6ccc(OC)cc6)c(-c6ccc(OC)cc6)c5n3[B-](F)(F)[N+]2=C4)cc1 | 0.32
COc1cccc(-c2c3ccccc3c3n2[B-](F)(F)[N+]2=Cc4c5ccccc5c(-c5cccc(OC)c5)n4[B-](F)(F)[N+]2=C3)c1 | 0.27
COc1ccc(-c2cc(C)nc(-c3ccc(-n4c5ccccc5c5ccccc54)cc3)n2)cc1 | 0.66
c1ccc(-c2nn(-c3ccccc3)c3nc4ccc(N(c5ccccc5)c5cccc6ccccc56)cc4cc23)cc1 | 0.47
O=C1/C(=C\c2ccc(N(c3ccccc3)c3ccccc3)cc2)S(=O)(=O)c2ccccc21 | 0.024
COc1ccc(-c2cc3ccc4cc(-c5ccc(OC)cc5)cc5ccc(c2)c3c45)cc1 | 0.34
CCN(CC)c1ccc2cc(/C(Cl)=C/C=C/C(=C(C#N)C#N)c3ccc4c(c3)c3ccccc3n4CC)c(=O)oc2c1 | 0.042
c1ccc(C2CCN3COc4c5ccccc5c5c6c7c(c2c3c46)C(c2ccccc2)CCN7CO5)cc1 (stereo not given) | 0.039
O=Cc1ccc(C2=C3C=c4c(oc5ccccc45)=[N+]3[B-](F)(F)n3c2cc2c4ccccc4oc23)cc1 | 0.45
CCn1c2ccsc2c2c3nsnc3c3c4sccc4n(CC)c3c21 | 0.42

Given CN(C)c1ccc(C#Cc2ccc(C#N)cc2)cc1 , respond with its photoluminescence quantum yield.
0.17

Given COc1ccc2c(c1)[nH]c1c3[nH]c4cc(OC)ccc4c3c3nsnc3c21 , respond with its photoluminescence quantum yield.
0.47

Given CCN(CC)c1ccc(-c2cc3c(s2)c(C(=O)OC)cc(=O)n3C)cc1 , respond with its photoluminescence quantum yield.
0.16

Given COc1cc(/C=C/c2cc(OC)c(-c3nc(-c4ccccc4)c(-c4ccccc4)[nH]3)cc2OC)c(OC)cc1/C=C/c1cc(OC)c(-c2nc(-c3ccccc3)c(-c3ccccc3)[nH]2)cc1OC , respond with its photoluminescence quantum yield.
0.42

Given CC1=CC(C)=[N+]2C1=C(c1c3ccccc3c(-c3ccccc3)c3ccccc13)c1c(C)cc(C)n1[B-]2(F)F , respond with its photoluminescence quantum yield.
0.01

* * *

Assay: photoluminescence quantum yield (fraction); solvent given as SMILES
Conditions: in CCO
Each record's class is read off its photoluminescence quantum yield using these ranges: L: < 0.05; M: ≥ 0.05 and < 0.3; H: ≥ 0.3

Some entries whose results are on file:
CC(C)[Si]1(C(C)C)c2cc(C=O)ccc2-c2ccc(N(C)C)cc21 | H
NS(=O)(=O)c1ccc(N2N=C(c3ccc(O)cc3)CC2c2ccccc2)cc1 (stereo not given) | H
Cc1ccc(C2=C3C=CC=[N+]3[B-](F)(F)n3cccc32)cc1 | L

Form: Item = CCN(CC)c1ccc2cc(C#N)/c(=N\C(=O)C(C)C)oc2c1 ; Class = ?
L

Form: Item = O=Cc1ccc(-c2cccc(-c3nc4ccccc4s3)c2O)s1 ; Class = ?
M

Form: Item = F[B-]1(F)n2cccc2C(c2ccc(-c3c4ccccc4c(-c4ccccc4)c4ccccc34)cc2)=C2C=CC=[N+]21 ; Class = ?
L
